Test system: nitrosoamine-induced pancreatic cancer
Experiment: laser irradiation to the extirpated organ (excited fluorescent spectrum, N2-PLS measurement), tumor to tissue ratio
Type: in vivo, Golden hamsters
Conditions: i.v. 25 mg/kg bodyweight, organs extirpated at 24 hours after administration
Protocol: Golden hamsters (males, 5 per group, bodyweight approximately 150 g) were implanted subcutaneously tumor cells of the nitrosoamine-induced pancreatic cancer. […] At 24 hours after administration, the organs including the tumor were extirpated, irradiated with N2-pulsed laser (N2, 337 nm, 2 ns, 400 - 1000 nm), and measured of excited fluorescent spectrum. […]
propertyLabel: tumor/tissue cancer/ liver

1) CC1=C(CCC(=O)NC(CC(=O)O)C(=O)O)C2=NC1=Cc1c(C)c(C(C)OCCc3ccccc3)c3[n]1[Ga][n]1c(c(C)c(CCC(=O)NC(CC(=O)O)C(=O)O)c1=C2)=CC1=NC(=C3)C(C)=C1C(C)OCCc1ccccc1 (stereo not shown) [(14) C8(Phenethyl)-Ga-DP-diAsp] : 3.79
2) CC1=C(CCC(=O)NC(CC(=O)O)C(=O)O)C2=NC1=Cc1c(C)c(C(C)OC(C)C)c3[n]1[Ga][n]1c(c(C)c(CCC(=O)NC(CC(=O)O)C(=O)O)c1=C2)=CC1=NC(=C3)C(C)=C1C(C)OC(C)C (stereo not shown) [(7) C3(iso)-Ga-DP-diAsp] : 2.63
3) CC1=C(CCC(=O)NC(CC(=O)O)C(=O)O)C2=NC1=Cc1c(C)c(C(C)OCCO)c3[n]1[Ga][n]1c(c(C)c(CCC(=O)NC(CC(=O)O)C(=O)O)c1=C2)=CC1=NC(=C3)C(C)=C1C(C)OCCO (stereo not shown) [(3) EG-Ga-DP-diAsp] : 3.00

Challenge: Can you share its tumor/tissue cancer/ liver? I mean this compound: CC1=C(CCC(=O)NC(CC(=O)O)C(=O)O)C2=NC1=Cc1c(C)c(C(C)OCCC(C)CCCC(C)C)c3[n]1[Ga][n]1c(c(C)c(CCC(=O)NC(CC(=O)O)C(=O)O)c1=C2)=CC1=NC(=C3)C(C)=C1C(C)OCCC(C)CCCC(C)C (stereo not shown) [(19) C10(H2Citro)-Ga-DP-diAsp]
Response given: 9.09
